Listing of recorded Total Cell Count by entry.
- Test system: Fibroblast
- protocol_text: Multiplex assay against human fibroblast
- Format: toxicity, cell-based
- condition_label: 48 h, 1 µM, compound concentration 1 uM, replicate 2

compound	Total Cell Count
CN(C)C(=O)N[C@H]1CC[C@H](CCN2CCN(c3cccc(Cl)c3Cl)CC2)CC1.Cl [CARIPRAZINE HYDROCHLORIDE]	103
CN1CCC[C@@H]1CCO[C@](C)(c1ccccc1)c1ccc(Cl)cc1.O=C(O)/C=C/C(=O)O [CLEMASTINE FUMARATE]	97
CN(C)C(=O)/C(C#N)=C/c1ccc(-c2nc3cnc4[nH]ccc4c3n2C2CCCCC2)o1	119
Cn1cc(-c2[nH]c3cc(NC(=O)[C@H](N)C4CCCCC4)cc4c3c2C=NNC4=O)cn1	103
O=C1NCN(c2ccccc2)C12CCN(CCCOc1ccc(F)cc1)CC2 [SPIRAMIDE]	137
CC(C)(O)CNc1ncc(-c2ccnc(Nc3ccnc(Cl)c3)n2)c(CC2CC2)n1	84
Cc1nc(-c2ccc(-c3ccc(C(=O)N4CCc5cc6c(cc54)C4(CCN(C)CC4)CO6)cc3)c(C)c2)no1 [SB-224289]	169
CN(C)CC#Cc1ccc(OCCCc2sc(N3CCc4cccc(C(=O)Nc5nc6ccccc6s5)c4C3)nc2C(=O)O)c(F)c1 [A-1155463]	105
CN1CCCC(n2nc(Cc3ccc(Cl)cc3)c3ccccc3c2=O)CC1.Cl (stereo not drawn) [AZELASTINE HYDROCHLORIDE]	123
Cc1cc(C)cc(-c2cnc3cc(Cl)c(-c4cccc(O)c4)cc3c2OCCCN)c1	117
OC1(c2ccc(Cl)cc2)CCN(Cc2c[nH]c3ccccc23)CC1	119
COc1cccc([C@@H](C)NCCCc2ccccc2Cl)c1.Cl [TECALCET HYDROCHLORIDE]	100
Cc1[nH]c(/C=C2\C(=O)Nc3ccc(S(=O)(=O)N(C)c4cccc(Cl)c4)cc32)c(C)c1C(=O)N1CCN(C)CC1	88

* * *

// Population Fragmented Nuclei (%) lookup, one value per entry
- Test system: HEK-293T
- protocol_text: Multiplex assay against HEK293T
- Format: toxicity, cell-based
- condition_label: human, 48 h, 10 µM, compound concentration 10 uM, replicate 2

compound	Population Fragmented Nuclei (%)
CNc1nc(NCc2ccc(NS(C)(=O)=O)cc2Cl)cc(-c2ccccn2)n1	5
CN1CCN(c2ccc(OC(F)(F)F)c(Nc3ncc4c(n3)-c3c(c(C(N)=O)nn3CCO)CC4)c2)CC1	6
Cc1csc2c(N[C@@H](C)CN3CCN(S(=O)(=O)c4ccc(Cl)c(Cl)c4)CC3)ncnc12	4
Cc1[nH]c(/C=C2\C(=O)Nc3ccc(S(=O)(=O)N(C)c4cccc(Cl)c4)cc32)c(C)c1C(=O)N1CCN(C)CC1	4
Cl.N#Cc1ccc2[nH]cc(CCCCN3CCN(c4ccc5oc(C(N)=O)cc5c4)CC3)c2c1 [VILAZODONE HYDROCHLORIDE]	13
COc1cc2nccc(Oc3ccc(NC(=O)Nc4cc(C)on4)c(Cl)c3)c2cc1OC.O	3
CCOCCn1cc(C(=O)Nc2ccc(-n3nc(-c4cccnc4)cc3C(F)(F)F)cn2)ccc1=O	4
CNCc1ccccc1-c1csc([C@H](C)Nc2nc(C)nc3cc(OC)c(OC)cc23)c1	17

* * *

- Tested on: U2OS
- protocol_text: Multiplex assay against U2OS
- Assay type: toxicity, cell-based
- condition_label: human, 12 h, 1 µM, compound concentration 1 uM, replicate 2
# Lookup of reported Population Mitochondria Different-Phenotype (%) keyed by entry
observed_property: Population Mitochondria Different-Phenotype (%)

compound	result_value
CN(C)C(=O)N[C@H]1CC[C@H](CCN2CCN(c3cccc(Cl)c3Cl)CC2)CC1.Cl [CARIPRAZINE HYDROCHLORIDE]	29
Cn1cc(-c2[nH]c3cc(NC(=O)[C@H](N)C4CCCCC4)cc4c3c2C=NNC4=O)cn1	7
Cc1cc(C)cc(-c2cnc3cc(Cl)c(-c4cccc(O)c4)cc3c2OCCCN)c1	82
C[C@@]1(C(=O)Nc2ccc(F)nc2)CCCN1c1nc(Nc2cc(C3CC3)n[nH]2)c2cccn2n1	25
Nc1c(C(=O)NCc2ccc(C(=O)NCCCC3CCCCC3)cc2)cnn1-c1ccccc1	8
c1cn2cc(-c3ccc4cn[nH]c4c3)nc(Nc3ccc(N4CCOCC4)cc3)c2n1	23
C[C@@H](NCCCc1cccc(C(F)(F)F)c1)c1cccc2ccccc12.Cl [CINACALCET HYDROCHLORIDE]	22
CN1CCCC(n2nc(Cc3ccc(Cl)cc3)c3ccccc3c2=O)CC1.Cl (stereo not drawn) [AZELASTINE HYDROCHLORIDE]	57

* * *

- Test system: Fibroblast
- protocol_text: Multiplex assay against human fibroblast
- Format: toxicity, cell-based
- condition_label: 24 h, 1 µM, compound concentration 1 uM, replicate 2
Reported values of Population Apoptotic (%) for individual entries

compound	unit	Population Apoptotic (%)
Cc1c(-c2ccc(O)cc2)n(Cc2ccc(OCCN3CCCCCC3)cc2)c2ccc(O)cc12	%	11
C=CC(=O)Nc1cc2c(Nc3ccc(F)c(Cl)c3)ncnc2cc1OCCCN1CCOCC1.Cl.Cl [CANERTINIB DIHYDROCHLORIDE]	%	100
Cc1[nH]c(/C=C2\C(=O)Nc3ccc(S(=O)(=O)N(C)c4cccc(Cl)c4)cc32)c(C)c1C(=O)N1CCN(C)CC1	%	100
Cc1nc(-c2cn3c(n2)-c2ccc(-c4cnn(C(C)(C)C(N)=O)c4)cc2OCC3)n(C(C)C)n1	%	60

* * *

- Test system: Fibroblast
- protocol_text: Multiplex assay against human fibroblast
- Assay type: toxicity, cell-based
- condition_label: 12 h, 1 µM, compound concentration 1 uM, replicate 2
Reported Population Mitochondria Different-Phenotype (%) is given for each of the following compounds.
observed_property: Population Mitochondria Different-Phenotype (%)

compound	result_value
C=CC(=O)Nc1cc2c(Nc3ccc(F)c(Cl)c3)ncnc2cc1OCCCN1CCOCC1.Cl.Cl [CANERTINIB DIHYDROCHLORIDE]	66
Cc1nc(Nc2n[nH]c3c2CN(C(=O)N[C@H](CN(C)C)c2ccccc2)C3(C)C)c2sccc2n1	13
O=C1NCN(c2ccccc2)C12CCN(CCCOc1ccc(F)cc1)CC2 [SPIRAMIDE]	10
Cl.N#Cc1ccc2[nH]cc(CCCCN3CCN(c4ccc5oc(C(N)=O)cc5c4)CC3)c2c1 [VILAZODONE HYDROCHLORIDE]	30
Cn1cc(-c2[nH]c3cc(NC(=O)[C@H](N)C4CCCCC4)cc4c3c2C=NNC4=O)cn1	7

* * *

- Test system: U2OS
- protocol_text: Multiplex assay against U2OS
- Assay type: toxicity, cell-based
- condition_label: human, 24 h, 10 µM, compound concentration 10 uM, replicate 1
Response field label takes met when Population Pyknosed Nuclei (%) is strictly below 20% and not met in all other cases.

molecule	class
CC[C@H](C)C(=O)O[C@H]1C[C@@H](C)C=C2C=C[C@H](C)[C@H](CC[C@@H]3C[C@@H](O)CC(=O)O3)[C@H]21 [LOVASTATIN]	met
COc1cccc([C@@H](C)NCCCc2ccccc2Cl)c1.Cl [TECALCET HYDROCHLORIDE]	not met
Cl.N#Cc1ccc2[nH]cc(CCCCN3CCN(c4ccc5oc(C(N)=O)cc5c4)CC3)c2c1 [VILAZODONE HYDROCHLORIDE]	not met
Cc1nc(-c2ccc(-c3ccc(C(=O)N4CCc5cc6c(cc54)C4(CCN(C)CC4)CO6)cc3)c(C)c2)no1 [SB-224289]	not met
COc1cc(-n2cnc3cc(-c4ccc(Cl)cc4)sc3c2=O)ccc1OCCN1CCCC1	not met
Cn1cc(-c2[nH]c3cc(NC(=O)[C@H](N)C4CCCCC4)cc4c3c2C=NNC4=O)cn1	not met
CN1CCN(c2ccc(OC(F)(F)F)c(Nc3ncc4c(n3)-c3c(c(C(N)=O)nn3CCO)CC4)c2)CC1 [ONVANSERTIB]	met
CNCc1ccc(-c2cc(-c3nc(-c4ccc(S(=O)(=O)C(C)C)cc4)cnc3N)on2)cc1 [BERZOSERTIB]	not met
COc1cc2nccc(Oc3ccc(NC(=O)Nc4cc(C)on4)c(Cl)c3)c2cc1OC.O	not met
CC(C)(O)CNc1ncc(-c2ccnc(Nc3ccnc(Cl)c3)n2)c(CC2CC2)n1	not met

* * *

- Test system: U2OS
- protocol_text: Multiplex assay against U2OS
- Type: toxicity, cell-based
- condition_label: human, 48 h, 10 µM, compound concentration 10 uM, replicate 1
observed_property: Total Cell Count

molecule	result_value
CCn1c(=O)c(-c2ccc(Cl)cc2Cl)cc2cnc(Nc3ccc(N4CCNCC4)c(F)c3)nc21	620
O=C1NCN(c2ccccc2)C12CCN(CCCOc1ccc(F)cc1)CC2 [SPIRAMIDE]	265
C[C@@H](NCCCc1cccc(C(F)(F)F)c1)c1cccc2ccccc12.Cl [CINACALCET HYDROCHLORIDE]	176
COc1cccc([C@@H](C)NCCCc2ccccc2Cl)c1.Cl [TECALCET HYDROCHLORIDE]	73
CC(C)(O)CNc1ncc(-c2ccnc(Nc3ccnc(Cl)c3)n2)c(CC2CC2)n1	308
